Biological target: human S1P1 receptor (Homo sapiens)
Construct: membranes used
Sequence (P21453 whole entry): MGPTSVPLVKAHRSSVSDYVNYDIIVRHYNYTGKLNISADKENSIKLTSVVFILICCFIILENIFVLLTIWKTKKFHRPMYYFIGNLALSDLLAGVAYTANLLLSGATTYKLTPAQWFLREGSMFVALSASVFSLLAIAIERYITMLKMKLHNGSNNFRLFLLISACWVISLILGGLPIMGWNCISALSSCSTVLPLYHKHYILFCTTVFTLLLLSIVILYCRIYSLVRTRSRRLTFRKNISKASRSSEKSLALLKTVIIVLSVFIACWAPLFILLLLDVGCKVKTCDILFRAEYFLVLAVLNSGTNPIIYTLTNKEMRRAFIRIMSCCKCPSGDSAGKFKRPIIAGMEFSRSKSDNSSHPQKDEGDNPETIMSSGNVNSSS
Assay: GTP γ35S binding assay for S1P1 activity
Conditions: membranes of cells stably expressing S1P1 receptor, agonist mode, 0.08 to 5,000 nM
pEC50: −log10 of the molar value.
OBSERVABLE: pEC50

INSERT INTO results (line_notation, measured_result) VALUES
  ('CC(C)Oc1ccc(C#Cc2ccc(CN3CCCC3)cc2)cc1C#N', 6.44),
  ('CC(C)Oc1ccc(C#Cc2ccc(Cn3ccnc3)cc2Cl)cc1C#N', 8.12),
  ('Cc1cc(Cn2ccnc2)ccc1C#Cc1ccc(OC(C)C)c(C#N)c1', 8.51);

[P] CC(C)Oc1ccc(C#Cc2ccc(Cn3ccnc3)cc2)cc1C#N
[Q] CC(C)Oc1ccc(C#Cc2ccc(Cn3ccnc3)cc2)cc1Cl
Returns: the label, P or Q , whose recorded pEC50 is the lower number. API: response body contains the label of the selected item.
Q
(Q: 7.83, P: 8.20)
